Where do these numbers come from? They come from PubChem BioAssay.

ASSAY_REMARKS: Plasmodium falciparum growth inhibition, primary screen, strain 3D7, DAPI fluorescence, 100 nL (AID 1184);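 also: parasites grown inside human red blood cells in medium with human serum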
CONDITION: P. falciparum 3D7 growth, 3 d, higher = more signal
Class yes: z-score at least -0.8. Class no: z-score below -0.8.

[
  {
    "COMPOUND": "COc1cc(C(O)C2C=CC3C(=O)N(Cc4ccccc4)C(=O)C3N2n2cnnc2)cc(OC)c1OC (stereo not given)",
    "ASSIGNED_CLASS": "yes"
  },
  {
    "COMPOUND": "COc1cccc(/C=C(\\C#N)C(=O)Nc2c(C)n(C)n(-c3ccccc3)c2=O)c1",
    "ASSIGNED_CLASS": "yes"
  },
  {
    "COMPOUND": "NC(=O)N1C(=O)C2C(C1=O)C1C=C(CCCO)C2C(C2CC2)N1Cc1cccc(OC(F)(F)F)c1 (stereo not given)",
    "ASSIGNED_CLASS": "yes"
  },
  {
    "COMPOUND": "CC(C)C(=C=CC[C@@H](O)c1cccc(OCCO)c1)C[C@@H](O)c1ccccn1",
    "ASSIGNED_CLASS": "yes"
  },
  {
    "COMPOUND": "C=C[C@@H](OC)[C@H](OC(=O)Nc1ccc(OC)cc1)c1ccc(OC)c(O)c1",
    "ASSIGNED_CLASS": "yes"
  },
  {
    "COMPOUND": "COc1ccc([Si](C)(C)[C@@H]2[C@@H](CCn3cc([C@H](O)c4ccccc4)nn3)O[C@]3(C(=O)N(Cc4cccc(N5C(=O)c6cccc7cccc5c67)c4)c4ccccc43)[C@H]2C)cc1",
    "ASSIGNED_CLASS": "no"
  },
  {
    "COMPOUND": "C[C@]1(C(=O)NCC(F)(F)F)c2ccccc2C(=O)N(Cc2ccccc2)[C@H]1c1ccc(CO)cc1",
    "ASSIGNED_CLASS": "yes"
  },
  {
    "COMPOUND": "NCCCCCNC(=O)[C@H]1C[C@H]2C(=O)N[C@@H](Cc3ccccc3)C(=O)N2[C@H]1c1ccc(O)cc1",
    "ASSIGNED_CLASS": "yes"
  },
  {
    "COMPOUND": "C=CCC(OC(C)=O)[C@@H]1[C@@H](N(Cc2cc3ccccc3o2)C(=O)c2ccc(-c3ccccc3)cc2)c2cc(OCCCO)ccc2N1C(=O)Cc1ccc(OC)cc1 (stereo not given in full)",
    "ASSIGNED_CLASS": "no"
  },
  {
    "COMPOUND": "NC(=O)[C@H]1[C@@H]2C(=O)O[C@@H](c3ccccc3)[C@@H](c3ccccc3)N2[C@@H](c2ccc(O)cc2)[C@]12C(=O)Nc1ccccc12",
    "ASSIGNED_CLASS": "yes"
  },
  {
    "COMPOUND": "C=CCC(OC(C)=O)[C@@H]1[C@@H](N(Cc2ccc(-c3ccccc3)cc2)C(=O)Cc2ccc(F)cc2)c2cc(OCCCO)ccc2N1C(=O)Cc1ccc2ccccc2c1 (stereo not given in full)",
    "ASSIGNED_CLASS": "no"
  },
  {
    "COMPOUND": "CCOC(=O)C1=C[C@@H](C(C)(C)C)N(S(=O)(=O)c2ccc(C)cc2)[C@H]1c1cccc(Cl)c1",
    "ASSIGNED_CLASS": "no"
  },
  {
    "COMPOUND": "O=C1C2C=CC(C(O)c3ccc4c(c3)OCO4)N(Nc3ccccc3)C2C(=O)N1c1ccccc1 (stereo not given)",
    "ASSIGNED_CLASS": "yes"
  },
  {
    "COMPOUND": "C=CCNC(=O)[C@H]1[C@@H]2C(=O)O[C@@H](c3ccccc3)[C@@H](c3ccccc3)N2[C@@H](c2ccc(O)cc2)[C@]12C(=O)N(C(=O)OCCOC)c1ccc(C#CCC(C(=O)OC)C(=O)OC)cc12",
    "ASSIGNED_CLASS": "no"
  }
]

====

ASSAY_REMARKS: compound binding in COS7 lysate, probe aLAP1, primary screen, cell lysate, small-molecule microarray (AID 1124);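 also: lysate comes from COS7 cells expressing LAP1 and is applied at 0.3 µg/mL; score merges spot fluorescence near 667 nm with signal-to-noise over triplicate slides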
CONDITION: probe aLAP1, fluorescence, higher = more signal
# key: entry, value: composite z-score

[
  {
    "COMPOUND": "Cc1ccccc1C(O)C1C=CC2C(=O)NC(=O)C2N1Nc1ccc(Cl)cc1Cl (centres undefined)",
    "composite z-score": 1.1
  },
  {
    "COMPOUND": "COCC(=C=CC[C@H](O)c1cccc(OCCO)c1)C[C@H](O)COCc1ccccc1",
    "composite z-score": 0.66
  },
  {
    "COMPOUND": "CC(C)C(CO)N1C(=O)[C@@H]2[C@H]3C(=O)OCC=C[C@H]3OC23C=CCN(C(C)(C)C)C(=O)[C@@H]13 (some centres undefined)",
    "composite z-score": -0.495
  },
  {
    "COMPOUND": "COCCOC(=O)N1C(=O)[C@@]2(c3cc(C#CC4(O)CCCCCC4)ccc31)[C@H](C(=O)N1CCN(c3ncccn3)CC1)[C@H]1C(=O)O[C@H](c3ccccc3)[C@H](c3ccccc3)N1[C@@H]2c1ccccc1OCCO",
    "composite z-score": -0.176
  }
]

====

SYSTEM_TESTED: Left-right determination factor 2 (Homo sapiens) (UniProt O00292)
Sequence (O00292 whole entry, looked up): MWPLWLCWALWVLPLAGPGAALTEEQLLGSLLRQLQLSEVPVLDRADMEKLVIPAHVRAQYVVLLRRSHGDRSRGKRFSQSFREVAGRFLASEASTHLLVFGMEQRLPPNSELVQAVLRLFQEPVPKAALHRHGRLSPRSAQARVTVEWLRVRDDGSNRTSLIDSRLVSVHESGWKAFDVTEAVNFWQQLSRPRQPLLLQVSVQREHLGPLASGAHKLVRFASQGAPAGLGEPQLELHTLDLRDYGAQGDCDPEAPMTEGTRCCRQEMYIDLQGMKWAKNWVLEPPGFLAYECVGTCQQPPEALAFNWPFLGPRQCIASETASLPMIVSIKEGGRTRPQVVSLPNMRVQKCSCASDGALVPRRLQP
ASSAY_REMARKS: LEFTY2 binders on small-molecule microarrays, primary screen, biochemical, small-molecule microarray, 635 nm fluorescence scan (AID 1110)
CONDITION: LEFTY2 binding, higher = more signal
# key: entry, value: composite z-score

[
  {
    "COMPOUND": "C=C(CCCC)C(=O)CC[C@H](OC(=O)c1ccccc1-c1ccccc1C(=O)O)c1ccccc1OCCO",
    "composite z-score": -0.171
  },
  {
    "COMPOUND": "NCCCCCNC(=O)[C@@H]1C[C@@H]2C(=O)N3CCC[C@H]3C(=O)N2[C@@H]1c1ccc(O)cc1",
    "composite z-score": 0.732
  },
  {
    "COMPOUND": "C=CCC(OC(C)=O)[C@@H]1[C@@H](N(Cc2cccc3ccccc23)C(=O)c2ccc(-c3ccccc3)cc2)c2cc(OCCCO)ccc2N1C(=O)c1ccc(-c2ccccc2)cc1 (stereo not given in full)",
    "composite z-score": 0.385
  },
  {
    "COMPOUND": "CN(C)CCCCCCNC(=O)[C@@H]1C[C@@H]2C(=O)N[C@@H](CCCCN)C(=O)N2[C@@H]1c1ccc(O)cc1",
    "composite z-score": 1.62
  },
  {
    "COMPOUND": "O=C1C2C=CC(C(O)c3ccco3)N(Nc3ccccc3)C2C(=O)N1c1ccccc1 (stereo not given)",
    "composite z-score": -0.756
  },
  {
    "COMPOUND": "Cc1nc2cc(Br)ccc2c(=O)n1Cc1cccc(O)c1",
    "composite z-score": 0.874
  },
  {
    "COMPOUND": "COc1cc(CO)cc(I)c1O[C@H]1C=C(C(=O)NCCO)C[C@@H](NCC2CCCCC2)[C@@H]1O",
    "composite z-score": 0.392
  },
  {
    "COMPOUND": "Cc1ccc(F)cc1S(=O)(=O)N[C@@H]1CCN(Cc2cccc3[nH]ccc23)C1",
    "composite z-score": 0.682
  },
  {
    "COMPOUND": "CCOC(=O)C[C@H]1[C@H](OC(=O)c2ccc(-c3ccccc3)cc2)[C@@H](NC(=O)CC(C)C)c2cc(OCCCO)ccc2N1C(=O)c1ccccc1",
    "composite z-score": 0.0613
  },
  {
    "COMPOUND": "C=C[C@@H](OC)[C@H](OC(=O)Nc1ccc(SC)cc1)c1ccc(OCCO)cc1",
    "composite z-score": 0.0128
  },
  {
    "COMPOUND": "COc1ccc(C(O)C2C=CC3C(=O)N(c4ccccc4)C(=O)C3N2Nc2ccccc2F)cc1 (stereo not given)",
    "composite z-score": -0.591
  },
  {
    "COMPOUND": "C=C(COC)/C(=C/C[C@@H](OC(=O)c1ccncc1)c1ccccc1OCCO)c1cc(C(=O)OC)ccc1OC",
    "composite z-score": -0.934
  },
  {
    "COMPOUND": "COc1ccc(CCNC(=O)[C@@]2(Cc3ccccc3I)c3ccccc3C(=O)N(Cc3ccccc3Cl)[C@H]2c2ccc(CO)cc2)cc1",
    "composite z-score": -0.818
  },
  {
    "COMPOUND": "COCCOC(=O)N1C(=O)[C@@]2(c3cc(C#CC4(O)CCCCCC4)ccc31)[C@H](c1ccc(OCCO)cc1)N1[C@H](c3ccccc3)[C@H](c3ccccc3)OC(=O)[C@H]1[C@@H]2C(=O)Nc1nc2ccccc2s1",
    "composite z-score": 0.985
  },
  {
    "COMPOUND": "CO[C@H]1O[C@H](CO)[C@@H](OC(=O)c2ccc(Br)cc2)[C@@H]2OC(=O)[C@H](Cc3ccccc3)C/C=C/C[C@@H](Cc3ccccc3)C(=O)O[C@@H]12",
    "composite z-score": 0.109
  }
]
